tested on: Pseudoperonospora cubensis; test: Fungicidal activity against Pseudoperonospora cubensis assessed as cucumber downy mildew disease control at 7.8 ppm foliar application 24 hr before inoculation onto the adaxial(treated) surface of leaf by preventive manner; type: functional
Assign Activity to each entry below.
Please respond with the number in % and leave the unit unwritten.

Query: Need Activity, item CNC(=O)C(OC)c1ccccc1CO/N=C(\C)c1ccc(Br)cc1 (racemic)
Response: 90

Query: Need Activity, item CNC(=O)C(OC)c1ccccc1CO/N=C(/SC)c1ccc(C(F)(F)F)cc1 (racemic)
Response: 100

Query: Need Activity, item CNC(=O)C(OC)c1ccccc1CO/N=C(\C)c1ccc(OC)cc1 (racemic)
Response: 0

###

Assign Activity to each entry below.
system: Pseudoperonospora cubensis; test: Fungicidal activity against Pseudoperonospora cubensis assessed as cucumber downy mildew disease control at 7.8 ppm foliar application 24 hr before inoculation onto the adaxial(treated) surface of leaf by preventive manner; type: functional

Query: Need Activity, item CNC(=O)C(OC)c1ccccc1CO/N=C(/SC)c1ccc(Cl)cc1 (racemic)
Response: 100%

Query: Need Activity, item CNC(=O)C(OC)c1ccccc1CO/N=C(\C)c1ccc(Cl)cc1 (racemic)
Response: 100%

Query: Need Activity, item CNC(=O)C(OC)c1ccccc1CO/N=C(\C)c1cccc(Cl)c1 (racemic)
Response: 90%

Query: Need Activity, item CCc1ccc(/C(C)=N/OCc2ccccc2C(OC)C(=O)NC)cc1 (racemic)
Response: 90%

Query: Need Activity, item CNC(=O)C(OC)c1ccccc1CO/N=C(/SC)c1ccc(OC(F)F)cc1 (racemic)
Response: 100%

Query: Need Activity, item CNC(=O)C(OC)c1ccccc1CO/N=C(\C)c1ccc(C)cc1 (racemic)
Response: 90%

Query: Need Activity, item CNC(=O)C(OC)c1ccccc1CO/N=C(\C)c1ccc(C(F)(F)F)cc1 (racemic)
Response: 100%

Query: Need Activity, item CNC(=O)C(OC)c1ccccc1CO/N=C(\C)c1cccc(C(F)(F)F)c1 (racemic)
Response: 90%

Query: Need Activity, item CNC(=O)C(OC)c1ccccc1CO/N=C(\C)c1ccc(OC(F)F)cc1 (racemic)
Response: 97%

###

Assign Activity to each entry below.
test system: Pseudoperonospora cubensis; test: Fungicidal activity against Pseudoperonospora cubensis assessed as cucumber downy mildew disease control at 125 ppm foliar application 24 hr before inoculation onto the adaxial(treated) surface of leaf by preventive manner; format: functional
Please respond with the number in % and leave the unit unwritten.

Query: Need Activity, item CNC(=O)C(OC)c1ccccc1CO/N=C(\C)c1ccc(OC)cc1 (racemic)
Response: 100

Query: Need Activity, item CNC(=O)C(OC)c1ccccc1CO/N=C(/SC)c1ccc(OC(F)F)cc1 (racemic)
Response: 100

Query: Need Activity, item CNC(=O)C(OC)c1ccccc1CO/N=C(\C)c1ccc(OC(F)F)cc1 (racemic)
Response: 97

Query: Need Activity, item CNC(=O)C(OC)c1ccccc1CO/N=C(/SC)c1ccc(Cl)cc1 (racemic)
Response: 100

Query: Need Activity, item CNC(=O)C(OC)c1ccccc1CO/N=C(\C)c1ccc(C(F)(F)F)cc1 (racemic)
Response: 100

Query: Need Activity, item CNC(=O)C(OC)c1ccccc1CO/N=C(\C)c1ccc(C)cc1C (racemic)
Response: 90

Query: Need Activity, item CNC(=O)C(OC)c1ccccc1CO/N=C(/C)c1ccc(Cl)cc1 (racemic)
Response: 90

Query: Need Activity, item CNC(=O)C(OC)c1ccccc1CO/N=C(/SC)c1ccc(OC)cc1 (racemic)
Response: 100

Query: Need Activity, item CNC(=O)C(OC)c1ccccc1CO/N=C(/SC)c1ccc(C(F)(F)F)cc1 (racemic)
Response: 100

Query: Need Activity, item CNC(=O)C(OC)c1ccccc1CO/N=C(\C)c1ccc(Cl)cc1 (racemic)
Response: 100

Query: Need Activity, item CNC(=O)C(OC)c1ccccc1CO/N=C(/C)c1ccc(C(F)(F)F)cc1 (racemic)
Response: 90

Reference for the values: ChEMBL document CHEMBL3046629
